# Method Summary: Overall risk based on in silico and in vitro results
# Settings: EpiMatrix and JanusMatrix scores compared with naïve donor T-cell assay
# Source text: Table 4 Overall risk based on in silico and in vitro results. | column: Overall risk
Property Name: Overall risk

substance="SVSEIQLMHN–GKHLNSMERVEWLRKKLQDVHNF [DES-LEU11_TERIPARATIDE, observed teriparatide impurity, deletion of Leu11]" measurement=High
substance="SVSEIQLMHNLGKHLNSMERVEWLRKK–QDVHNF [DES-LEU28_TERIPARATIDE, observed teriparatide impurity, deletion of Leu28]" measurement=Low
substance="SVSEIQLMHNLG–HLNSMERVEWLRKKLQDVHNF [DES-LYS13_TERIPARATIDE, observed teriparatide impurity, deletion of Lys13]" measurement=High
substance="SVSEIQLMHNLLGKHLNSMERVEWLRKKLQDVHNF [ENDO-LEU11_TERIPARATIDE, theoretical teriparatide impurity predicted by WhIM, duplication of Leu11]" measurement=High
substance="SVSEIQLMHNLGKHLNSMERVEWLR(K-Ac)KLQDVHNF [LYS-AC26_TERIPARATIDE, observed teriparatide impurity, Lys26 acetylated]" measurement=High
substance="SVSEIQLMHNLGK–LNSMERVEWLRKKLQDVHNF [DES-HIS14_TERIPARATIDE, observed teriparatide impurity, deletion of His14]" measurement=High
substance="SVSEIQLMHNL–KHLNSMERVEWLRKKLQDVHNF [DES-GLY12_TERIPARATIDE, theoretical teriparatide impurity predicted by WhIM, deletion of Gly12]" measurement=High
substance="SVSEIQLMHNLGKHLNSMERVEWLRKKLQDVHNF [TERIPARATIDE, teriparatide]" measurement=Low
substance="SVSEIQLM–NLGKHLNSMERVEWLRKKLQDVHNF [DES-HIS9_TERIPARATIDE, observed teriparatide impurity, deletion of His9]" measurement=High

Attribution: paper PMC12722964
